- ASSAY_REMARKS: ACEA_AR_antagonist_AUC_viability: ACEA Biosciences xCELLigence Real-Time Cell Analysis on Androgen Receptor Antagonism for Viability (AID 2283776);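 note: 22Rv1 human prostate cancer cells growing on impedance electrode plates; area under impedance growth curve at 80 h after dosing as viability; hits lower the growth signal relative to DMSO meaning cytotoxicity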
- Experimental: ACEA_AR_antagonist is a cell-based, single-readout assay that uses 22Rv1, a human prostate cancer cell line, with measurements taken at 80 hours after chemical dosing in a 384-well plate, although TO5 and TO6 (mc0.srcf) used a 96-well plate. Differences in plate size can be ignored given data normalization.ACEA_AR_80hr is one of two assay component(s) measured or calculated from the ACEA_ER assay. […]
Results filed as inconclusive are left out. Calls of active or inactive are those of the source. Rule for the calls: active = hit-call score of the fitted dose curve at least 0.9, where 1 is the maximum; inconclusive = response in the unintended direction; inactive = score below 0.9.
Outcomes: 1 for active, -1 for inactive

{"COMPOUND": "CC(=O)C(C)=CC1C(C)=CCCC1(C)C (configuration not stated)", "CLASS_ASSIGNMENT": 1}
{"COMPOUND": "Cc1nc(-c2ccc3c(c2)CCN(CCC2CCC(NC(=O)/C=C/c4ccc(F)cc4)CC2)CC3)no1 (configuration not stated)", "CLASS_ASSIGNMENT": 1}
{"COMPOUND": "CC(=O)OCCOCCOCCOC(C)=O", "CLASS_ASSIGNMENT": -1}
{"COMPOUND": "COCCOCCOC", "CLASS_ASSIGNMENT": -1}
{"COMPOUND": "CCCCCCCCCCCCCCCCCC(=O)O", "CLASS_ASSIGNMENT": 1}
{"COMPOUND": "COc1ccc(C)cc1N", "CLASS_ASSIGNMENT": -1}
{"COMPOUND": "CC(C)(C)c1cc(O)c(C(C)(C)C)cc1O", "CLASS_ASSIGNMENT": -1}
{"COMPOUND": "C=CCOC(=O)c1ccccc1C(=O)OCC=C", "CLASS_ASSIGNMENT": -1}
{"COMPOUND": "COc1cc(S(=O)(=O)O)c(C)cc1N=Nc1c(O)ccc2cc(S(=O)(=O)O)ccc12", "CLASS_ASSIGNMENT": -1}
{"COMPOUND": "Nc1ccc2c(c1)C(=O)c1ccccc1C2=O", "CLASS_ASSIGNMENT": 1}
{"COMPOUND": "COc1cccc2c1C(=O)c1c(O)c3c(c(O)c1C2=O)C[C@@](O)(C(=O)CO)C[C@@H]3O[C@H]1C[C@H](N)[C@H](O)[C@H](C)O1", "CLASS_ASSIGNMENT": 1}
{"COMPOUND": "CC(=O)Oc1ccccc1C(=O)O", "CLASS_ASSIGNMENT": -1}
{"COMPOUND": "O=C(N[C@@H](Cc1ccccc1)[C@@H](O)C(=O)N1C[C@@H](O)[C@@H](O)C1)c1cc2cc(Cl)ccc2[nH]1", "CLASS_ASSIGNMENT": 1}
{"COMPOUND": "FC(F)(F)C(F)(F)C(F)(F)C(F)(F)C(F)(F)C(F)(F)CCI", "CLASS_ASSIGNMENT": -1}
{"COMPOUND": "O=C(OCCCCCOC(=O)c1ccccc1)c1ccccc1", "CLASS_ASSIGNMENT": 1}
{"COMPOUND": "NCC1(Cc2noc(=O)[nH]2)CCCCC1", "CLASS_ASSIGNMENT": -1}
{"COMPOUND": "CNCc1cc(F)ccc1Oc1ccc(Cl)c(Cl)c1", "CLASS_ASSIGNMENT": 1}
{"COMPOUND": "CCCCCCCCCCCCCO", "CLASS_ASSIGNMENT": -1}
{"COMPOUND": "CCCCCCC(=O)OCC", "CLASS_ASSIGNMENT": -1}
{"COMPOUND": "Oc1ccc2ccccc2c1N=Nc1ccccc1", "CLASS_ASSIGNMENT": -1}
{"COMPOUND": "Cc1ccc(C(C)C)c(O)c1", "CLASS_ASSIGNMENT": -1}
{"COMPOUND": "CC=Cc1ccc(O)c(OC)c1", "CLASS_ASSIGNMENT": 1}
{"COMPOUND": "Cc1oc(-c2ccccc2)nc1CCOc1cccc2c1ccn2CCC(=O)O", "CLASS_ASSIGNMENT": 1}
{"COMPOUND": "CCCCCCCCCCO", "CLASS_ASSIGNMENT": -1}
{"COMPOUND": "CC1=C(/C=C/C(C)=C/C=C/C(C)=C/CO)C(C)(C)CCC1", "CLASS_ASSIGNMENT": 1}
{"COMPOUND": "CCNc1cccc(C)c1", "CLASS_ASSIGNMENT": -1}
{"COMPOUND": "NCCO", "CLASS_ASSIGNMENT": -1}

----------
- Read-out: Forkhead box O3 (FOXO3), FOXO3 (gene 2309)
- ASSAY_REMARKS: LTEA_HepaRG_FOXO3: Life Technologies and Expression Analysis (LTEA) Assay for Forkhead box O3 (FOXO3) using HepaRG (AID 2283459)
- CONDITION_INFO: mRNA level, 48 h; actives raise or lower the signal
Active and inactive are the calls of the source. Rule for the calls: active = hit-call score of the fitted dose curve at least 0.9, where 1 is the maximum; inactive = score below 0.9.
Outcomes: active, inactive

{"COMPOUND": "Cc1ccc(N(C)C)cc1", "CLASS_ASSIGNMENT": "inactive"}
{"COMPOUND": "CCCCCCC(=O)OCC", "CLASS_ASSIGNMENT": "inactive"}
{"COMPOUND": "COc1cc(C=O)ccc1O", "CLASS_ASSIGNMENT": "inactive"}
{"COMPOUND": "Cc1ccc(Cl)cc1", "CLASS_ASSIGNMENT": "inactive"}
{"COMPOUND": "CNC(=O)[C@H]1O[C@@H](n2cnc3c(NCc4cc(Cl)ccc4OCc4cc(C)no4)ncnc32)[C@H](O)[C@@H]1N", "CLASS_ASSIGNMENT": "inactive"}
{"COMPOUND": "CC1(C)CC(N=C=O)CC(C)(CN=C=O)C1 (stereo not drawn)", "CLASS_ASSIGNMENT": "inactive"}
{"COMPOUND": "Nc1ccc2c(c1)C(=O)c1ccccc1C2=O", "CLASS_ASSIGNMENT": "active"}
{"COMPOUND": "Cc1ccc2ncccc2c1", "CLASS_ASSIGNMENT": "inactive"}
{"COMPOUND": "COc1cc(S(=O)(=O)O)c(C)cc1N=Nc1c(O)ccc2cc(S(=O)(=O)O)ccc12", "CLASS_ASSIGNMENT": "inactive"}
{"COMPOUND": "CCCCCCCC=O", "CLASS_ASSIGNMENT": "inactive"}
{"COMPOUND": "CC=Cc1ccc(O)c(OC)c1", "CLASS_ASSIGNMENT": "inactive"}
{"COMPOUND": "NC(=O)Cn1c(=O)cc(CCN2CCN(c3nccc4sccc34)CC2)c2ccc(F)cc21", "CLASS_ASSIGNMENT": "inactive"}
{"COMPOUND": "NCC1(Cc2noc(=O)[nH]2)CCCCC1", "CLASS_ASSIGNMENT": "inactive"}

----------
- Read-out: Hypoxia-inducible factor 1-alpha (Homo sapiens) (UniProt Q16665)
- Sequence (Q16665 whole entry, looked up): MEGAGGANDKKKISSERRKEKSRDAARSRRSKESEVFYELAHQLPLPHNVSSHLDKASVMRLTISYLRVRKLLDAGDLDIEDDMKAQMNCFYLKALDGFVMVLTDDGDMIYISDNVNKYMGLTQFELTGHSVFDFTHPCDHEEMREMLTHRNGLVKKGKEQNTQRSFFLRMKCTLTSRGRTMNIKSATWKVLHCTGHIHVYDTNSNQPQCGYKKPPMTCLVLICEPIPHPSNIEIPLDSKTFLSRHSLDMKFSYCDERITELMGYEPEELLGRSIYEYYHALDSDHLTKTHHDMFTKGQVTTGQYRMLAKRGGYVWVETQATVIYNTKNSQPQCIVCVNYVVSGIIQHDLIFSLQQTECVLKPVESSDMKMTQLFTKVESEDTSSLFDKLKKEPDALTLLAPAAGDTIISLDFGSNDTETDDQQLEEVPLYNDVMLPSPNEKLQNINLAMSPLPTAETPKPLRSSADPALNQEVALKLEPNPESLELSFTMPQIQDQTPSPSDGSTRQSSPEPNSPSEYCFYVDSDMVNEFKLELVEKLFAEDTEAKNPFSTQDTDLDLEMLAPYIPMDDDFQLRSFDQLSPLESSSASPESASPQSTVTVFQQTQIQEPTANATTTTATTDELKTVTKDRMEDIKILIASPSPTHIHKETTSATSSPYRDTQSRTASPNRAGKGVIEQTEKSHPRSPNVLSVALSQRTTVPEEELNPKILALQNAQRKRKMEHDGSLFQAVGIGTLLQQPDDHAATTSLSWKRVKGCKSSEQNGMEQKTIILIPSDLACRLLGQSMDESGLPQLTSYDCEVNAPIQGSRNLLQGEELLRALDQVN
- ASSAY_REMARKS: LTEA_HepaRG_HIF1A: Life Technologies and Expression Analysis (LTEA) Assay for Hypoxia-inducible factor 1 (HIF1A) Trancription factor using HepaRG (AID 2283503);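 note: HIF1A transcript by TaqMan qRT-PCR normalized to ACTB GAPDH and POLR2A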
- CONDITION_INFO: mRNA level, 48 h; actives raise or lower the signal
Calls of active or inactive are those of the source. How the source made its calls: active means hit-call score of the fitted dose curve at least 0.9, where 1 is the maximum; inactive means score below 0.9.

{"COMPOUND": "COc1cc(-c2nc(NC(=O)c3cc4cc(C)cc(C)c4n3CC(=O)O)sc2CCC2CCCCC2)c(OC)cc1Cl", "AC50": "11 µM (active)"}
{"COMPOUND": "CCCCCCOCCO", "AC50": "inactive"}
{"COMPOUND": "C1CCC(SSC2CCCCC2)CC1", "AC50": "inactive"}
{"COMPOUND": "CN[C@H]1CC[C@@H](c2ccc(Cl)c(Cl)c2)c2ccc(S(N)(=O)=O)cc21", "AC50": "inactive"}
{"COMPOUND": "Cc1ccc(C)c(C)c1", "AC50": "inactive"}
{"COMPOUND": "Cc1ccccc1Cl", "AC50": "inactive"}
{"COMPOUND": "OC[C@@H](O)[C@@H](O)[C@H](O)[C@H](O)CO", "AC50": "inactive"}
{"COMPOUND": "NC(=O)Cn1c(=O)cc(CCN2CCN(c3nccc4sccc34)CC2)c2ccc(F)cc21", "AC50": "13.1 µM (active)"}
{"COMPOUND": "Cc1ccc(C)c(O)c1C", "AC50": "inactive"}
{"COMPOUND": "C[C@]12C=CC(=O)C=C1CC[C@@H]1[C@@H]2C(=O)C[C@@]2(C)[C@H]1CC[C@]2(O)C(=O)CO", "AC50": "inactive"}
{"COMPOUND": "CC1=C(/C=C/C(C)=C/C=C/C(C)=C/CO)C(C)(C)CCC1", "AC50": "inactive"}
{"COMPOUND": "CC(CO)OC(C)CO (stereo not drawn) (tested in a mixture with another compound)", "AC50": "inactive"}
{"COMPOUND": "CC=Cc1ccc(O)c(OC)c1", "AC50": "inactive"}
{"COMPOUND": "COCCOC[C@H](CC1(C(=O)NC2CCC(C(=O)O)CC2)CCCC1)C(=O)Oc1ccc2c(c1)CCC2 (stereo partly drawn)", "AC50": "inactive"}
{"COMPOUND": "Cc1cccc([N+](=O)[O-])c1C", "AC50": "inactive"}
{"COMPOUND": "CCCCN(CCCC)CCCC", "AC50": "inactive"}
{"COMPOUND": "Cc1cc(NC(=O)C(=O)O)cc(C)c1Oc1ccc(O)c2c1CCC2", "AC50": "0.021 µM (active)"}
{"COMPOUND": "COc1ccc(C)cc1N", "AC50": "inactive"}
{"COMPOUND": "Cc1ccc(Cl)cc1", "AC50": "inactive"}
{"COMPOUND": "CCc1c(C(=O)NN2CCCCC2)nn(-c2ccc(Cl)cc2Cl)c1-c1ccc(Br)cc1", "AC50": "86.6 µM (active)"}
{"COMPOUND": "CN1CCCC1=O", "AC50": "inactive"}
{"COMPOUND": "C[Si]1(C)O[Si](C)(C)O[Si](C)(C)O[Si](C)(C)O1", "AC50": "inactive"}
{"COMPOUND": "CCCCCCCCCCCC(=O)OC", "AC50": "inactive"}
{"COMPOUND": "CN1CCN(Cc2cc(-c3ccc4[nH]c(=O)oc4c3)co2)[C@@H](c2ccc(F)cc2)C1", "AC50": "inactive"}
{"COMPOUND": "CC(=O)C(C)=CC1C(C)=CCCC1(C)C (stereo not drawn)", "AC50": "inactive"}
{"COMPOUND": "O=[N+]([O-])C(CO)(CO)CO", "AC50": "inactive"}
{"COMPOUND": "Cc1cccc(C)c1O", "AC50": "inactive"}
{"COMPOUND": "CCNc1cccc(C)c1", "AC50": "inactive"}
{"COMPOUND": "CC(C)c1ccc(C(=O)N=C(N)N)cc1S(C)(=O)=O", "AC50": "inactive"}
{"COMPOUND": "Oc1ccc2ccccc2c1N=Nc1ccccc1", "AC50": "inactive"}
{"COMPOUND": "Cc1c(C(=O)O)c(O)cc2c1C(=O)c1c(O)c([C@@H]3O[C@H](CO)[C@@H](O)[C@H](O)[C@H]3O)c(O)c(O)c1C2=O", "AC50": "inactive"}
{"COMPOUND": "Clc1cc(Cl)c(Cl)cc1Cl", "AC50": "inactive"}
{"COMPOUND": "Nc1ccccc1N", "AC50": "inactive"}
{"COMPOUND": "O=C(N[C@@H](Cc1ccccc1)[C@@H](O)C(=O)N1C[C@@H](O)[C@@H](O)C1)c1cc2cc(Cl)ccc2[nH]1", "AC50": "inactive"}
{"COMPOUND": "CCCCc1ccc2c(n1)[C@@H](c1ccc(OC)cc1C[C@H](C)C(=O)O)[C@H](C(=O)O)[C@H]2c1ccc2c(c1)OCO2", "AC50": "inactive"}
{"COMPOUND": "Cc1ccc(C(C)C)c(O)c1", "AC50": "inactive"}
{"COMPOUND": "CC1(C)NC(=O)NC1=O", "AC50": "inactive"}
{"COMPOUND": "CC(=O)OCCOCCOCCOC(C)=O", "AC50": "inactive"}
